Quick reference: EC50 of the listed items.
# Assay target: S1P5 receptors (Homo sapiens, UniProt Q9H228)
# Sequence (Q9H228 whole entry): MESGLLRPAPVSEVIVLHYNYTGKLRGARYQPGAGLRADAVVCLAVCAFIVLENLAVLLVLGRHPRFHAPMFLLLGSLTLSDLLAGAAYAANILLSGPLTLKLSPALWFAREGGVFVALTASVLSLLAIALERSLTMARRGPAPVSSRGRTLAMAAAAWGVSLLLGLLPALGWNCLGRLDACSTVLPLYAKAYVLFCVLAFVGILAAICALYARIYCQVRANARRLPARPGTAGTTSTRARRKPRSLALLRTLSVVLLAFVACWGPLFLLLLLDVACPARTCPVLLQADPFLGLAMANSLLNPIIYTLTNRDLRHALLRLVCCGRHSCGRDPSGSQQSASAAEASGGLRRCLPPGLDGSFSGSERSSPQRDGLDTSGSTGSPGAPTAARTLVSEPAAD
# Assay text: [35S]-GTPγS binding assay with CHO-S1P5 receptor membranes
# Condition summary: membranes of CHO cells expressing recombinant S1P5 receptors; measure of S1P5 agonism

Solved entries:
[[record]]
molecule = "Cc1cc(C2CN(c3ccccc3F)C2)cc(C)c1CN1CCC(C(=O)O)CC1 [Compound 46]"
meas_value = "10 to 100 nM"

[[record]]
molecule = "Cc1cc(CN2CCC(C(=O)O)CC2)ncc1C1CN(c2c(Cl)cccc2Cl)C1 [Compound 77]"
meas_value = "100 to 1000 nM"

[[record]]
molecule = "O=C(O)C1CCN(C2CCc3cc(C4CN(c5c(F)cccc5F)C4)ccc32)CC1 (single isomer, unassigned) [Compound 2b]"
meas_value = "1000 to 10000 nM"


Requested read-out EC50, target or system S1P5 receptors (Homo sapiens, UniProt Q9H228), entry O=C(O)[C@@H]1CCN(Cc2ccc(C3CN(c4c(Cl)cccc4Cl)C3)cc2)C1 [Compound 12b]
≤ 10 nM

Requested read-out EC50, target or system S1P5 receptors (Homo sapiens, UniProt Q9H228), entry O=C(O)C1CCN(Cc2ccc(C3CN(c4c(Cl)cccc4Cl)C3)cc2)CC1 [Compound 11]
10 to 100 nM

Requested read-out EC50, target or system S1P5 receptors (Homo sapiens, UniProt Q9H228), entry O=C(O)C1CCN(Cc2ccc(C3CN(c4ccccc4F)C3)cc2)CC1 [Compound 40]
100 to 1000 nM

Requested read-out EC50, target or system S1P5 receptors (Homo sapiens, UniProt Q9H228), entry Cc1cc(C2CN(c3c(Cl)cccc3Cl)C2)c(C)cc1CN1CCC(C(=O)O)CC1 [Compound 19]
≤ 10 nM

Requested read-out EC50, target or system S1P5 receptors (Homo sapiens, UniProt Q9H228), entry O=C(O)C1CCN(Cc2ccc(N3CC(c4c(Cl)cccc4Cl)C3)cn2)CC1 [Compound 29]
10 to 100 nM

Requested read-out EC50, target or system S1P5 receptors (Homo sapiens, UniProt Q9H228), entry Cc1cc(C2CN(c3c(Cl)cccc3Cl)C2)cc(C)c1CN1CCC(C(=O)O)C(C)C1 (stereo not shown) [Compound 61]
≤ 10 nM

Requested read-out EC50, target or system S1P5 receptors (Homo sapiens, UniProt Q9H228), entry O=C(O)C1CCN(Cc2ccc(N3CC(c4c(Cl)cccc4Cl)C3)cc2F)CC1 [Compound 33]
10 to 100 nM

Requested read-out EC50, target or system S1P5 receptors (Homo sapiens, UniProt Q9H228), entry O=C(O)C1CCN(C2CCc3cc(C4CN(c5c(F)cccc5F)C4)ccc32)CC1 (single isomer, unassigned) [Compound 2a]
10 to 100 nM

Requested read-out EC50, target or system S1P5 receptors (Homo sapiens, UniProt Q9H228), entry O=C(O)C1CCN(Cc2ccc(N3CC(c4c(Cl)cccc4Cl)C3)c(F)c2)CC1 [Compound 34]
≤ 10 nM

Requested read-out EC50, target or system S1P5 receptors (Homo sapiens, UniProt Q9H228), entry O=C(O)C1CCN(C2CCc3cc(C4CN(c5ccccc5F)C4)ccc32)CC1 (single isomer, unassigned) [Compound 4a]
10 to 100 nM

Requested read-out EC50, target or system S1P5 receptors (Homo sapiens, UniProt Q9H228), entry CCc1cccc(CC)c1N1CC(c2cc(C)c(CN3CCC(C(=O)O)CC3)c(C)c2)C1 [Compound 69]
≤ 10 nM

Requested read-out EC50, target or system S1P5 receptors (Homo sapiens, UniProt Q9H228), entry Cc1cc(C2CN(c3c(Cl)cccc3Cl)C2)cc(C)c1CN1CC[C@@H](C(=O)O)C1 [Compound 60]
≤ 10 nM

Requested read-out EC50, target or system S1P5 receptors (Homo sapiens, UniProt Q9H228), entry O=C(O)C1CCN(C2CCc3cc(C4CN(c5cccc(F)c5)C4)ccc32)CC1 (single isomer, unassigned) [Compound 3a]
100 to 1000 nM
